# credit: ChEMBL document CHEMBL1153999

- experimental_protocol: Solubility in triple distilled water
- Format: physicochemical
measured_quantity: solubility (µg/mL)
Answer in µg/mL, number only, no unit symbol.

Could you please provide reported solubility for CSc1c(C#N)c(N)c(C#N)c(-c2ccccc2)c1-c1ccccc1 ? Thanks! 0.13

====

- experimental_target: Maltase-glucoamylase (Homo sapiens) (UniProt O43451)
- Sequence (O43451 whole entry, looked up): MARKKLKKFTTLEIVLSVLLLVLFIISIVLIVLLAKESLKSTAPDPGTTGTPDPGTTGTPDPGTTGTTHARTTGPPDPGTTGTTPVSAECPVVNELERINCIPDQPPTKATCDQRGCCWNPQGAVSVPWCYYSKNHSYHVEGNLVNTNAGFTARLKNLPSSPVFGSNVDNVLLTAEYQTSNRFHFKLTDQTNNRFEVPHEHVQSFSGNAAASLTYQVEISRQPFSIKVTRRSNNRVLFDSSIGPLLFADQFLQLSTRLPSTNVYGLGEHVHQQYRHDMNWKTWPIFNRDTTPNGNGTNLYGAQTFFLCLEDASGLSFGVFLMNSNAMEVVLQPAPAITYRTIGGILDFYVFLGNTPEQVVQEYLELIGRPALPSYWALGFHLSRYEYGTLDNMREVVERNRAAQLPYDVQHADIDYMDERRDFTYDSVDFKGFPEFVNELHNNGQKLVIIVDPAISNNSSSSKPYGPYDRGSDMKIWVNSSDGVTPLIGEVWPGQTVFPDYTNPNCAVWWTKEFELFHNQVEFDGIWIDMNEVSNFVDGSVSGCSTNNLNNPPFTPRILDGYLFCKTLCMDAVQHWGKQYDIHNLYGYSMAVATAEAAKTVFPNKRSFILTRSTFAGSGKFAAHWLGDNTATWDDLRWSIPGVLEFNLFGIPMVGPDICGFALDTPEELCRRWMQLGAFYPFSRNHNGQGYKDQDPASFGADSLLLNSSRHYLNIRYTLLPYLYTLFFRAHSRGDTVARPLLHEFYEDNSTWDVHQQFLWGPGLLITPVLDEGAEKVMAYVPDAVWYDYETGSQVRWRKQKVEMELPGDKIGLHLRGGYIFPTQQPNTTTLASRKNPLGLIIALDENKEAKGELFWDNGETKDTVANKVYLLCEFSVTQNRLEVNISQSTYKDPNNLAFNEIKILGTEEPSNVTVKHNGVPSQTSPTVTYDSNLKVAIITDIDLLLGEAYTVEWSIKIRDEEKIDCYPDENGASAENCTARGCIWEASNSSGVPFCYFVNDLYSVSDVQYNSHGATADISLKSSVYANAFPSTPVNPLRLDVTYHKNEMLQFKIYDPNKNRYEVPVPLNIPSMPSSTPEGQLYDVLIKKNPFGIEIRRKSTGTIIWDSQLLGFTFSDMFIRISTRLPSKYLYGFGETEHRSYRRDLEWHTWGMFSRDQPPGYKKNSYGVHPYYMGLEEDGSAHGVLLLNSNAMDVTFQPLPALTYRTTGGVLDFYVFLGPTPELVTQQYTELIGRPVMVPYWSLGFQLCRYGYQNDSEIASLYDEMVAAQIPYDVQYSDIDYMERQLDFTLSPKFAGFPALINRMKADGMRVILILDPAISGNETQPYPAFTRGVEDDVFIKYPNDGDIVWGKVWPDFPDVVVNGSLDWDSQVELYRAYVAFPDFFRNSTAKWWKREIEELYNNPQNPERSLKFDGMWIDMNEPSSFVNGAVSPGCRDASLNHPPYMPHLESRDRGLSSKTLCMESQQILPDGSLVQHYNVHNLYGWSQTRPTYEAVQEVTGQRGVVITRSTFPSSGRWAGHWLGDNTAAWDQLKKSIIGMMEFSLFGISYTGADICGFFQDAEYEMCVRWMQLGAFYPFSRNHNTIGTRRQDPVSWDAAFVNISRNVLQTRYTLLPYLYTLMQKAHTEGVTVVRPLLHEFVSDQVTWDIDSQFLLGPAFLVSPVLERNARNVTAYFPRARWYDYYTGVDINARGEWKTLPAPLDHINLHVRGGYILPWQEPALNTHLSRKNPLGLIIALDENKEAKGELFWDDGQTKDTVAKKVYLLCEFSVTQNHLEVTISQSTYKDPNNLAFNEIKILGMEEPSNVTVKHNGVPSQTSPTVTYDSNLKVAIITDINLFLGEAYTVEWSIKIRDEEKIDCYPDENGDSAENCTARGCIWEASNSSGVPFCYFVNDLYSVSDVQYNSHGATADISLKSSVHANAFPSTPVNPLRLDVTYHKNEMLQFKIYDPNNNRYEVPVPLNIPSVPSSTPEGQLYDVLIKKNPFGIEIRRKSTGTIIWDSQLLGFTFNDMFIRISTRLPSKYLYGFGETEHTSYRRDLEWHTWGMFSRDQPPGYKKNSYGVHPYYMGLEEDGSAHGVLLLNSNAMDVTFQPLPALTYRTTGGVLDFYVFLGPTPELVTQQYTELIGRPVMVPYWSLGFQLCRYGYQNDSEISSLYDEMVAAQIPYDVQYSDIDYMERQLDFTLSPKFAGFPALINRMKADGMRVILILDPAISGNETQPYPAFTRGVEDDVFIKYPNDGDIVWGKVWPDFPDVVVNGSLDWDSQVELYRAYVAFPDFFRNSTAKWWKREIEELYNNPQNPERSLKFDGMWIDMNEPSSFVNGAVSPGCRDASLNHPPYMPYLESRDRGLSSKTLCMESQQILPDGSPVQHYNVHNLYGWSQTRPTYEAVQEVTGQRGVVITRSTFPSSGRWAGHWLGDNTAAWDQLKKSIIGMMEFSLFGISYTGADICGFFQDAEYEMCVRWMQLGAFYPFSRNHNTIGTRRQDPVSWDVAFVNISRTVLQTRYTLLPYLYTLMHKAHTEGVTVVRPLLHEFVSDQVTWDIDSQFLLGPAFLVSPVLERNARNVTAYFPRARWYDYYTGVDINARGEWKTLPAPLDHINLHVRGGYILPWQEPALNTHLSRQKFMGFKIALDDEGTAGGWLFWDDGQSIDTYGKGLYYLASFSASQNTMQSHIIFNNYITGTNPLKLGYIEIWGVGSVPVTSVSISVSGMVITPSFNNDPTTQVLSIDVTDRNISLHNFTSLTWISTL
- experimental_protocol: Inhibition of alpha-glucosidase at 100 uM
Give measured inhibition for each item. Keep answers brief.

Could you please provide reported inhibition for CSc1c(C#N)c(N)c(C#N)c(C)c1-c1ccc(C(F)(F)F)cc1 ? Thanks! 22.1%

Could you please provide reported inhibition for COc1ccc(-c2c(C)c(C#N)c(N)c(C#N)c2SC)cc1OC ? Thanks! 6.7%

Could you please provide reported inhibition for CSc1c(C)c(-c2ccccc2)c(C#N)c(N)c1C#N ? Thanks! 6.7%

Could you please provide reported inhibition for CSc1c(C#N)c(N)c(C#N)c(-c2ccccc2)c1-c1ccccc1 ? Thanks! 10.5%

Could you please provide reported inhibition for CSc1c(C#N)c(N)c(C#N)c(C)c1-c1ccc(F)cc1 ? Thanks! 17.3%

Could you please provide reported inhibition for COc1ccc(-c2c(C)c(SC)c(C#N)c(N)c2C#N)cc1 ? Thanks! 17.3%

Could you please provide reported inhibition for COc1ccc(-c2c(C#N)c(N)c(C#N)c(SC)c2-c2ccc(OC)c(OC)c2)cc1 ? Thanks! 25.9%

Could you please provide reported inhibition for COc1ccc(-c2c(C)c(C#N)c(N)c(C#N)c2SC)c(OC)c1 ? Thanks! 10.5%

Could you please provide reported inhibition for COc1ccc(-c2c(C#N)c(N)c(C#N)c(SC)c2-c2ccc(OC)cc2)cc1 ? Thanks! 14.4%

Could you please provide reported inhibition for CSc1c(C)c(-c2ccc(Cl)cc2)c(C#N)c(N)c1C#N ? Thanks! 6.7%

====

- experimental_target: Maltase-glucoamylase (Homo sapiens)
- experimental_protocol: Inhibition of alpha-glucosidase at 100 uM
measured_quantity: inhibition (%)
Answer in %, number only, no unit symbol.

Could you please provide reported inhibition for COc1ccc(-c2c(C#N)c(N)c(C#N)c(SC)c2-c2ccc(F)cc2)cc1 ? Thanks! 13.4

Could you please provide reported inhibition for COc1ccc(-c2c(C#N)c(N)c(C#N)c(SC)c2-c2ccc(F)cc2)c(OC)c1 ? Thanks! 11.5

Could you please provide reported inhibition for COc1ccc(-c2c(C#N)c(N)c(C#N)c(SC)c2-c2ccccc2)cc1 ? Thanks! 5.7
